Each recorded value in this set is attributed to patent US7579356B2.

- Test target: HER-2 (Homo sapiens, UniProt P04626)
- Construct: His6 with thrombin site (N); purchased Proqinase (Freiburg, Germany)
- Sequence (P04626 679-1255): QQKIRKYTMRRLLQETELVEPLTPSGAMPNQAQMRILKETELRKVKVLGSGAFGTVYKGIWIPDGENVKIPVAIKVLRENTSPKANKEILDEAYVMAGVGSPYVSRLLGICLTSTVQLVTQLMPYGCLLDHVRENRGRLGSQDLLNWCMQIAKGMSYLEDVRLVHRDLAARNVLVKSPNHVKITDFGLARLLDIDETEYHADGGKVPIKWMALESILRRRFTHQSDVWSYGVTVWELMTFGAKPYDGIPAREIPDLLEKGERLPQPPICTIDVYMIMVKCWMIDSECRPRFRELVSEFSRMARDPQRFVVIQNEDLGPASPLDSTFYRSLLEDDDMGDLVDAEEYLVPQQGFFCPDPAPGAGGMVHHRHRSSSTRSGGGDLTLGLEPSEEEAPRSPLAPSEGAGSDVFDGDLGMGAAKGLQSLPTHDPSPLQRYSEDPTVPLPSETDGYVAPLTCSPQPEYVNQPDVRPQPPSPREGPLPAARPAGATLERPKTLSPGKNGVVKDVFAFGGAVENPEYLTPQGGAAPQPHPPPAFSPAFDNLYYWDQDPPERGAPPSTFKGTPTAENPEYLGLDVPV
- Test description: HER-2 Kinase Assay
- Type: biochemical
- Condition details: test concentration of 1 μM
- Experimental: The HER-2 kinase used was purified at Proqinase (Freiburg, Germany) from a construct that consisted of a fusion of GST (Glutathione-S-Transferase), HIS6-Thrombin and the nucleotides encoding amino acids 679 to 1255 of HER-2 (Accession Number M11730). […] The reaction plates were incubated at 30° C. for 1 hr. […] The plates were then sealed and read on the TopCount scintillation counter. […]
Criterion: inhibition at 1 µM meeting or surpassing 20%. Met: met. Not met: not met.

Ask: Hi, just wondering whether O=C(Nc1ccc(CCN2CCCCC2)cc1)c1sc2ncnc3c2c1NC(=O)N3c1ccc(Oc2cccc(F)c2)cc1 shows inhibition at 1 µM of 20% or higher.
Result: met

Ask: Evaluate O=C(Nc1ccc(CN2CCOCC2)cc1)c1sc2ncnc3c2c1NC(=O)N3c1ccc(F)cc1Cl : inhibition at 1 µM at minimum 20%?
Result: met

Ask: Check this compound for inhibition at 1 µM at or above 20%: COc1cc(N2C(=O)Nc3c(C(=O)Nc4ccc(OC)c(OC)c4)sc4ncnc2c34)c(Cl)cc1Cl
Result: not met

Ask: For this compound, is measured inhibition at 1 µM 20% or higher? O=C(Nc1ccc(CN2CCCC2)cc1)c1sc2ncnc3c2c1NC(=O)N3c1cc(OCc2cccc(F)c2)c(Cl)cc1Cl
Result: not met

Ask: Check this compound for inhibition at 1 µM at or above 20%: COc1cc(N2C(=O)Nc3c(C(=O)Nc4ccc(CN5CCN(C)CC5)cc4)sc4ncnc2c34)c(Cl)cc1Cl
Result: met
